Collected pEC50 values appear next to each entry.
Tested system: 84V90M (Human immunodeficiency virus type 1 group M subtype B, UniProt P04585, I572V/L578M)
Protocol summary: cell-based
Experimental setup: Cell-based assay (MT-4)
When answering, recall that pEC50 equals minus log10 of the concentration in mol/L, and write that number alone.

>>> recorded_number("CCOP(=O)(COc1ccc(CC2C(O)C(O)C(Cc3ccc(OC)cc3)N(Cc3cccc(N)c3)C(=O)N2Cc2cccc(N)c2)cc1)OCC (stereo not drawn)")
6.27

# next molecule below
If you can, please state the reported pEC50 value of Nc1n[nH]c2ccc(CN3C(=O)N(Cc4cccc(O)c4)C(Cc4ccccc4)C(O)C(O)C3Cc3ccccc3)cc12 (stereo not drawn) .
6.32
